Measured values drawn from PubChem BioAssay (NCI) for this set.

# System: UACC-257 melanoma
# run description: NCI tumour cell line growth inhibition, 48 h
Documented TGI across a set of compounds

Worked cases, answers included:
{"compound": "CCOc1cc2c(cc1O)CC[C@@H]1[C@@H]2CC[C@]2(C)C(OS(=O)OC3CC[C@@H]4[C@H]5CCc6cc(O)c(OCC)cc6[C@@H]5CC[C@@]34C)CC[C@@H]12 (stereo partly drawn)", "result": "> 42.8 µM"}
{"compound": "CCOC(=O)c1cc2c(cn1)[nH]c1cccc(N)c12", "result": "> 100 µM"}
{"compound": "Nc1nn(CC(O)CO)c(=O)s1 (stereo not drawn)", "result": "> 100 µM"}
{"compound": "CCCCCCCCCCCCCCCCCCOc1ccc(/C=C/C2=[N+](CCCl)CCO2)cc1", "result": "> 100 µM"}
{"compound": "Cc1cc([N+](=O)[O-])ccc1NS(=O)(=O)c1cc(Cl)ccc1Cl", "result": "7.55 µM"}
{"compound": "c1ccc(Nn2c(CCCCCCCCc3nnc(COc4ccccc4)n3Nc3ccccc3)nnc2COc2ccccc2)cc1", "result": "> 86.5 µM"}

Exercise: Tell me TGI reported for Cc1ccc(C(=O)N2CCN(C(=O)c3ccc(C)cc3)c3ccccc32)cc1
Key: > 100 µM

Exercise: Give the reported TGI for this compound. COc1cc([C@@H]2c3cc4c(cc3[C@@H](N=Cc3ccc(C(=O)O[C@@H](C(=O)O[C@H]5C[C@@]6(O)[C@@H](OC(=O)c7ccccc7)[C@@H]7[C@]8(OC(C)=O)CO[C@@H]8C[C@H](O)[C@@]7(C)C(=O)[C@H](OC(C)=O)C(=C5C)C6(C)C)[C@@H](NC(=O)c5ccccc5)c5ccccc5)cc3)[C@H]3COC(=O)[C@H]23)OCO4)cc(OC)c1O
Key: > 50 µM

Exercise: Determine from records and report TGI for COC1=C2C[C@H](O)C(C)C[C@@]2(OC)OC1=O (stereo partly drawn)
Key: > 100 µM

Exercise: Hello, please tell me recorded TGI for this one: COc1nc2ccc(CNc3ccc(C(=O)O)cc3)cc2nc1OC
Key: > 10 µM

Exercise: For the compound CN[C@@H]1C[C@H]2O[C@@](C)([C@@H]1OC)n1c3ccccc3c3c4c(c5c6ccccc6n2c5c31)C(=O)N[C@H]4O , give its measured TGI value.
Key: 2.57 µM

Exercise: Respond only with TGI recorded for CCO/C=C1\N=C(C(Cl)c2ccccc2)OC1=O (stereo not drawn)
Key: > 100 µM

Exercise: State its TGI: CCOC(=O)[C@H]1CSC[C@@H](C(=O)OC)N1
Key: > 100 µM

----------
# Test system: IGROV1 ovarian
# run description: NCI tumour cell line growth inhibition, 48 h
Each entry below carries its recorded TGI.

Past entries and their recorded results:
{"compound": "CC(=O)NC(C)c1ccc(N=NN2CCCC2)cc1 (stereo not given)", "TGI": "> 100 µM"}
{"compound": "COc1nc2ccc(CNc3ccc(C(=O)O)cc3)cc2nc1OC", "TGI": "> 10 µM"}

Exercise: # return TGI of Clc1cc(OCC23CC4CC(CC(C4)C2)C3)nc(OCC23CC4CC(CC(C4)C2)C3)n1 (system: IGROV1 ovarian)
Key: > 100 µM

Exercise: Recall the reported TGI of CC(C)=CCCC1(Sc2ccccc2)C(=O)OCC1C=C(C)C (stereo not given) when tested on IGROV1 ovarian.
Key: 60.4 µM

Exercise: Would you please give the reported TGI of CCCC(=O)Nc1cc(/C=C/C(=O)N2CC(CCl)c3c2cc([N+](=O)[O-])c2ccccc32)n(C)c1 (stereo not given) with IGROV1 ovarian?
Key: > 100 µM
